# target: hOT7T175 (Homo sapiens, UniProt Q969F8, L364H)
# Sequence (Q969F8 whole entry L364H): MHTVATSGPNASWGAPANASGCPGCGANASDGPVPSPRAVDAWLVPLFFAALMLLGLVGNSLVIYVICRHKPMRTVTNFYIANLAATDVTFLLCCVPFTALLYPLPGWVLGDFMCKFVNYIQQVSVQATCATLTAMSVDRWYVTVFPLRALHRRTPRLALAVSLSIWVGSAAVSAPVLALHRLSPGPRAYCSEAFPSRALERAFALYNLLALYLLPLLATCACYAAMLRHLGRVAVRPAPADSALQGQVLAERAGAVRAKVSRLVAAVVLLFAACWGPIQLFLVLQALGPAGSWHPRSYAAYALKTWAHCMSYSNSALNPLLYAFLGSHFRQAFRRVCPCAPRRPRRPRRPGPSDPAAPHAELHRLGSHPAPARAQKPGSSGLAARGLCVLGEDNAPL
# assay-comment: hOT7T175 receptor binding activity: binding inhibition of Cy-5-labeled metastin (40-54) on hOT7T175-expressed CHO cells
Peptide text beside a SMILES is read from it.
experimental-readout: pIC50
In simple prose, pIC50 is minus the logarithm base ten of a concentration in moles per litre.

For CC(C)C[C@H](NC(=O)CNC(=O)[C@H](Cc1ccc(O)cc1)NC(=O)[C@H](CO)NC(=O)[C@H](CC(N)=O)NC(=O)[C@H](Cc1c[nH]c2ccccc12)NC(=O)[C@H](CC(N)=O)NC(=O)[C@@H](N)Cc1ccc(O)cc1)C(=O)N[C@@H](CCCNC(=N)N)C(=O)N[C@@H](Cc1ccccc1)C(N)=O [Compound No. 150] (H-YNWNSYGLRF-NH2) , write its pIC50.
6.49

Please list pIC50 recorded for the compound CC(C)C[C@H](NC(=O)CNC(=O)[C@H](Cc1ccccc1)NC(=O)[C@H](CO)NC(=O)[C@H](CC(N)=O)NC(=O)[C@H](CO)NC(=O)[C@H](CC(N)=O)NC(=O)[C@@H](N)Cc1ccc(O)cc1)C(=O)N[C@@H](CCCNC(=N)N)C(=O)N[C@@H](Cc1ccccc1)C(N)=O [Compound No. 69] (H-YNSNSFGLRF-NH2)
7.08

====

# target: hOT7T175 (Homo sapiens, UniProt Q969F8, L364H)
# assay-comment: Intracellular Ca ion level-increasing activity using FLIPR in hOT7T175/CHO
# Assay type: cell-based
# Set-up: expressed in transfected cells; host or cells: CHO/dhfr- cells, obtained from ATCC
# condition: relative, Metastin (1-54) = 1
Numbered stars: 1 amine (or outer) side, 2 acyl side, 3 side chain; on linkers, the order of the positions; unused ones are H or OH. Square brackets hold non-standard residues; d marks the D form. Peptide text beside a SMILES is read from it. * marks the point of attachment. Arg(Me) = CNC(=N)NCCC[C@H](N)C(=O)O; Tryptamide = c1ccc2c(CCN*)c[nH]c2c1; Cha = N[C@@H](CC1CCCCC1)C(=O)O; CO = O=C([*:1])[*:2]; azaGly = NNC(=O)O
experimental-readout: Specific Activity (intracellular Ca ion level-increasing activity)

>  <molecule>
CNC(=N)NCCC[C@H](NC(=O)[C@H](CC(C)C)NC(=O)NNC(=O)[C@H](Cc1ccccc1)NC(=O)[C@H](CO)NC(=O)[C@H](CC(N)=O)NC(=O)NCCc1c[nH]c2ccccc12)C(=O)N[C@@H](Cc1ccccc1)C(N)=O [Compound No. 279] ({Tryptamide-CO}-NSF[azaGly]L[Arg(Me)]F-NH2)

>  <reported-result>
5

$$$$
>  <molecule>
CC(C)C[C@H](NC(=O)CNC(=O)[C@H](Cc1ccccc1)NC(=O)[C@H](CO)NC(=O)[C@H](CC(N)=O)NC(=O)[C@H](Cc1c[nH]c2ccccc12)NC(=O)[C@H](CC(N)=O)NC(=O)[C@@H](N)Cc1ccc(O)cc1)C(=O)N[C@@H](CCCNC(=N)N)C(=O)N[C@@H](CC1CCCCC1)C(N)=O [Compound No. 112] (H-YNWNSFGLR[Cha]-NH2)

>  <reported-result>
2

$$$$

Pending molecule:
Tell me its Specific Activity (intracellular Ca ion level-increasing activity) given CC(C)C[C@H](NC(=O)CNC(=O)[C@H](Cc1ccccc1)NC(=O)[C@H](CO)NC(=O)[C@H](CC(N)=O)NC(=O)[C@H](Cc1c[nH]c2ccccc12)NC(=O)[C@H](CC(N)=O)NC(=O)[C@@H](N)Cc1ccc(O)cc1)C(=O)N[C@@H](CCCCNC(=N)N)C(=O)N[C@@H](Cc1ccccc1)C(N)=O [Compound No. 97] as the entry.
10

====

# target: hOT7T175 (Homo sapiens, UniProt Q969F8, L364H)
# assay-comment: Intracellular Ca ion level-increasing activity using FLIPR in hOT7T175/CHO
# Assay type: cell-based
# Design: expressed in transfected cells; host or cells: CHO/dhfr- cells, obtained from ATCC
# condition: relative, Metastin (1-54) = 1
Square brackets hold non-standard residues; d marks the D form. Ends that are not written are not given here. Arg(Me) = CNC(=N)NCCC[C@H](N)C(=O)O
experimental-readout: Specific Activity (intracellular Ca ion level-increasing activity)
Answer with a number only.

>  <substance>
Dap-D-Tyr-Asn-Trp-Asn-Ser-Phe-Gly-Leu-Arg(Me)-Phe-NH2 [Compound No. 387]

>  <reported-result>
1

$$$$

Attention now shifts to the item below.
For the substance D-Tyr-Asn-Trp-Asn-Ser-Phe-Ala-Leu-Arg(Me)-Phe-NH2 ([dY]NWNSFAL[Arg(Me)]F-NH2; N-terminus assumed; SMILES CNC(=N)NCCC[C@H](NC(=O)[C@H](CC(C)C)NC(=O)[C@H](C)NC(=O)[C@H](Cc1ccccc1)NC(=O)[C@H](CO)NC(=O)[C@H](CC(N)=O)NC(=O)[C@H](Cc1c[nH]c2ccccc12)NC(=O)[C@H](CC(N)=O)NC(=O)[C@H](N)Cc1ccc(O)cc1)C(=O)N[C@@H](Cc1ccccc1)C(N)=O) [Compound No. 173] , give its measured Specific Activity (intracellular Ca ion level-increasing activity) value.
1

====

# target: hOT7T175 (Homo sapiens, UniProt Q969F8, L364H)
# assay-comment: Intracellular Ca ion level-increasing activity using FLIPR in hOT7T175/CHO
# Assay type: cell-based
# Parameters: expressed in transfected cells; host or cells: CHO/dhfr- cells, obtained from ATCC
# condition: relative, Metastin (1-54) = 1
Square brackets hold non-standard residues; d marks the D form. Peptide text beside a SMILES is read from it. Arg(Me) = CNC(=N)NCCC[C@H](N)C(=O)O; 4Pal = N[C@@H](Cc1ccncc1)C(=O)O; d3Pal = N[C@H](Cc1cccnc1)C(=O)O; azaGly = NNC(=O)O
Recorded Specific Activity (intracellular Ca ion level-increasing activity) values for a group of molecules are listed next.

Previously resolved entries follow.
>  <molecule>
CNC(=N)NCCC[C@H](NC(=O)[C@H](CC(C)C)NC(=O)NNC(=O)[C@H](Cc1ccccc1)NC(=O)[C@H](CO)NC(=O)[C@H](CC(N)=O)NC(=O)[C@H](Cc1c[nH]c2ccccc12)NC(=O)[C@H](CC(N)=O)NC(=O)[C@H](N)Cc1cccnc1)C(=O)N[C@@H](Cc1ccccc1)C(N)=O [Compound No. 258] (H-[d3Pal]NWNSF[azaGly]L[Arg(Me)]F-NH2)

>  <target>
hOT7T175 (Homo sapiens, UniProt Q969F8, L364H)

>  <reported-result>
2

$$$$
>  <molecule>
CC(C)C[C@H](NC(=O)CNC(=O)[C@H](Cc1ccccc1)NC(=O)[C@H](CO)NC(=O)[C@H](CC(N)=O)NC(=O)[C@H](Cc1c[nH]c2ccccc12)NC(=O)[C@H](CC(N)=O)NC(=O)[C@@H](N)Cc1ccc(O)cc1)C(=O)N[C@@H](CCCNC(=N)N)C(=O)N[C@@H](Cc1ccccc1)C(N)=O [Compound No. 3, reference compound]

>  <target>
hOT7T175 (Homo sapiens, UniProt Q969F8, L364H)

>  <reported-result>
10

$$$$

Report Specific Activity (intracellular Ca ion level-increasing activity) for CNC(=N)NCCC[C@H](NC(=O)[C@H](CC(C)C)NC(=O)NNC(=O)[C@H](Cc1ccccc1)NC(=O)[C@H](CO)NC(=O)[C@H](CC(N)=O)NC(=O)[C@H](Cc1ccncc1)NC(=O)[C@@H](CC(N)=O)NC(=O)[C@@H](N)Cc1ccc(O)cc1)C(=O)N[C@@H](Cc1ccccc1)C(N)=O [Compound No. 304] (H-Y[dN][4Pal]NSF[azaGly]L[Arg(Me)]F-NH2)
3

====

# target: hOT7T175 (Homo sapiens, UniProt Q969F8, L364H)
# assay-comment: Intracellular Ca ion level-increasing activity using FLIPR in hOT7T175/CHO
# Type: cell-based
# Parameters: expressed in transfected cells; host or cells: CHO/dhfr- cells, obtained from ATCC
# condition: relative, Metastin (1-54) = 1
Square brackets hold non-standard residues; d marks the D form. Peptide text beside a SMILES is read from it. Phe(3-Cl) = N[C@@H](Cc1cccc(Cl)c1)C(=O)O; Phe(4-F) = N[C@@H](Cc1ccc(F)cc1)C(=O)O; Arg(Me) = CNC(=N)NCCC[C@H](N)C(=O)O; azaGly = NNC(=O)O
experimental-readout: Specific Activity (intracellular Ca ion level-increasing activity)
Please reply with the value in numeric form only.

>  <compound>
CNC(=N)NCCC[C@H](NC(=O)[C@H](CC(C)C)NC(=O)CNC(=O)[C@H](Cc1ccccc1)NC(=O)[C@H](CO)NC(=O)[C@H](CC(N)=O)NC(=O)[C@@H](Cc1c[nH]c2ccccc12)NC(=O)[C@@H](CC(N)=O)NC(=O)[C@H](N)Cc1ccc(O)cc1)C(=O)N[C@@H](Cc1ccccc1)C(N)=O

>  <target>
hOT7T175 (Homo sapiens, UniProt Q969F8, L364H)

>  <reported-result>
1

$$$$
>  <compound>
CNC(=N)NCCC[C@H](NC(=O)[C@H](CC(C)C)NC(=O)NNC(=O)[C@H](Cc1ccccc1)NC(=O)[C@H](CO)NC(=O)[C@H](CC(N)=O)NC(=O)[C@@H](NC(=O)[C@@H](CC(N)=O)NC(=O)[C@H](N)Cc1ccc(O)cc1)[C@@H](C)O)C(=O)N[C@@H](Cc1ccc(F)cc1)C(N)=O [Compound No. 316] (H-[dY][dN]TNSF[azaGly]L[Arg(Me)][Phe(4-F)]-NH2)

>  <target>
hOT7T175 (Homo sapiens, UniProt Q969F8, L364H)

>  <reported-result>
1

$$$$

Specify measured Specific Activity (intracellular Ca ion level-increasing activity) for CNC(=N)NCCC[C@H](NC(=O)[C@H](CC(C)C)NC(=O)NNC(=O)[C@H](Cc1ccccc1)NC(=O)[C@H](CO)NC(=O)[C@H](CC(N)=O)NC(=O)[C@H](Cc1cccc(Cl)c1)NC(=O)[C@H](CC(N)=O)NC(=O)[C@H](N)Cc1ccc(O)cc1)C(=O)N[C@@H](Cc1ccccc1)C(N)=O [Compound No. 248] (H-[dY]N[Phe(3-Cl)]NSF[azaGly]L[Arg(Me)]F-NH2) .
2

Data origin, for the record: patent US8361968B2
